Assay: chemical genetic growth profiling, strain panel (AID 1159580);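 also: tested at 20 µM; growth read once vehicle control cultures reached saturation at 30 °C; 1 = growth at the plate median or of vehicle wells; lower values mean less growth of the strain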
Conditions: S. cerevisiae deletion strains, growth OD, locus YGR252W, strain gcn5, active compounds read low
In all, about 5,500 compounds went through this assay and about 2,000 (36%) were called active. About 18% were inconclusive and are not listed. The list shows a part of the results.
Catalogue of normalized growth values
Response field accepts a number only; no unit should be typed.

As a guide, the following entries are already answered.
> print(dat)
                                   compound  result
1  C=C1C2CC[C@@]3(C)[C@H](c4ccoc4)OC(=O)C[C@]13O[C@H]1CC(=O)C(C)(C)[C@H](C(O)C(=O)OC)[C@@]21C (stereo partly specified)    1.01
2                            Clc1ccc(Cl)cc1   0.964
3         COc1ccc2c(=O)cc(-c3ccccc3OC)oc2c1   0.716
4       ClC(Cl)=C(c1ccc(Cl)cc1)c1ccc(Cl)cc1    1.03
5  CC1=C2C(=CO[C@H](C)[C@H]2C)C(=O)C(C(=O)O)=C1O    1.06

Item CCCCCCCCCCCCCCCC[n+]1ccccc1 has what recorded normalized growth? 0.17

###

Assay: chemical genetic growth profiling, strain panel (AID 1159580);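 also: tested at 20 µM; growth read once vehicle control cultures reached saturation at 30 °C; 1 = growth at the plate median or of vehicle wells; lower values mean less growth of the strain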
Details: S. cerevisiae deletion strains, growth OD, locus YDL035C, strain GPR1, active compounds read low
Among all 5,500 compounds or so, about 2,000 (36%) were called active. Another 18% or so got no clear call; they are omitted. The list shows a part of the results.
readout-type: normalized growth
Response field accepts a number only; no unit should be typed.

> print(dat)
                                   compound  result
1      CC(N)Cc1ccc(O)cc1 (stereo not given)    1.02
2                      Nc1ccc(C(=O)O)c(O)c1    1.02
3  CC(=O)CC(c1ccccc1)c1c(O)c2ccccc2oc1=O (stereo not given)    1.02
4  COc1cc([C@@H]2c3cc4c(cc3[C@H](OC(C)=O)[C@H]3COC(=O)[C@H]23)OCO4)cc(OC)c1OC    1.02
5                            NCCc1ccc(O)cc1    1.01
6           CN1CCc2c(c3ccccc3n2Cc2ccccc2)C1   0.913

Item C=C1C(N)CC2CC1C2(C)C (stereo not given) has what recorded normalized growth? 0.994

Item Nc1ccc(C(=O)O)c(O)c1 (tested in a mixture with another compound) has what recorded normalized growth? 0.989

Item O=C1CC[C@]23C=CC(=O)NCCCCNCCCNC(=O)/C=C/c4ccc(c2c4)O[C@@H]3C1 has what recorded normalized growth? 1.05

Item CC1NC(=O)NC1=O (stereo not given) has what recorded normalized growth? 0.987

Item O=C(/C=C/c1ccccc1)c1ccc(O)cc1 has what recorded normalized growth? 0.723

Item C=CCCCCCCCCCCCC(O)CC(O)CO (stereo not given) (tested in a mixture with another compound) has what recorded normalized growth? 0.359

Item NCCc1ccc(O)c(O)c1 has what recorded normalized growth? 1.01

Item O=c1oc2ccccc2c(O)c1Cc1c(O)c2ccccc2oc1=O has what recorded normalized growth? 1.04

Item Cc1coc2ccccc2c1=O has what recorded normalized growth? 1
